What TGI was measured for each of the following?
Test system: OVCAR-4 ovarian
PROCEDURE_DETAILS: NCI tumour cell line growth inhibition, 384-well format
Give bare numbers, in nM.

Bench note: what TGI did C=C1C[C@@H]2CC[C@@]34C[C@H]5O[C@H]6[C@@H](O3)[C@H]3O[C@H](CC[C@@H]3O[C@H]6[C@@H]5O4)CC(=O)C[C@@H]3[C@@H](OC)[C@@H](C[C@H](O)CN)O[C@H]3C[C@H]3O[C@@H](CC[C@@H]1O2)C[C@@H](C)C3=C show?
974

Bench note: what TGI did Nc1ccc(/C=C/C(=O)NCc2cc3cc(-c4ccc(C(=O)N5CCC(F)(F)CC5)cc4)cc(-c4ccc(F)cc4)c3o2)cn1 show?
472

Now look at this entry.
Bench note: what TGI did CCc1c2c(nc3ccc(OC(=O)N4CCC(N5CCCCC5)CC4)cc13)-c1cc3c(c(=O)n1C2)COC(=O)[C@]3(O)CC show?
59800

Reference source: PubChem BioAssay (NCI)
